Assay: In vivo pharmacokinetic studies in mice
Design: species or system Balb/C mice
Conditions: Balb/C, mouse, plasma; mice, single 40 mg/kg oral dose
Quick list: bioavailability per entry.
Provide only the numeric value, understood in %.

CC[C@H](O)c1csc(C(=O)c2c[nH]c3cc(F)ccc23)n1 ... 15.1

// below: bioavailability requested for another compound
Item under review: CC[C@H](N)c1csc(C(=O)c2c[nH]c3cc(F)ccc23)n1 . Reported bioavailability? 75.7

* * *

Measured AUC(0-t), listed per entry for reference.
Test: In vivo pharmacokinetic studies in rats
Parameters: species or system SD rats
Conditions: Sprague-Dawley (SD), rat, plasma, po, 10 mg/kg, rats, single 10 mg/kg PO dose, individual animal; read-out: AUClast
Report the figure in µg·h/mL without appending any unit label.

CC[C@H](O)c1csc(C(=O)c2c[nH]c3cc(F)ccc23)n1 ... 2.11

// moving on: another record for AUC(0-t)
# lookup: AUC(0-t) of CC[C@@H](O)c1csc(C(=O)c2c[nH]c3cc(F)ccc23)n1 4.26

* * *

Assay: In vivo pharmacokinetic studies in rats
Design: species or system SD rats
Conditions: SD, rat, plasma, iv, 2 mg/kg, rats, single 2 mg/kg IV dose, individual animal
resultType: MRT inf (min)
Report as a plain number; the unit min is understood.

Item CC[C@@H](O)c1csc(C(=O)c2c[nH]c3cc(F)ccc23)n1 [ARI-165] has what recorded MRT inf? 48.6

* * *

This listing pairs compounds with measured Tmax at 1 day.
Test: In vivo pharmacokinetic studies in rats
Parameters: species or system SD rats
Conditions: Sprague-Dawley (SD), rat, plasma, po, 10 mg/kg, rats, repeat 10 mg/kg PO QD, Day 1, Mean of 3 animals; read-out: Tmax
Output spec: scalar in h, unitless text.

N[C@@H](c1csc(C(=O)c2c[nH]c3cc(F)ccc23)n1)C(F)(F)F [ARI-224] ... 1.33

Recorded Tmax at 1 day of CC[C@H](N)c1csc(C(=O)c2c[nH]c3cc(F)ccc23)n1 [ARI-186] , please. 6.67

* * *

Assay: Hepatocyte intrinsic clearance assay (metabolic stability), rat hepatocytes
Type: in vitro ADME
Conditions: rat, cryopreserved hepatocytes, Rat Hepatocytes, 1 μM test compound
Entry flag: condition met if hepatocyte CLint at 1 μM reaches 10 µL/min/1e6 cells; condition not met if it does not.

// below: answered compounds
CC[C@H](N)c1csc(C(=O)c2c[nH]c3cc(F)ccc23)n1 [ARI-186] ... condition not met
CC(C)(O)c1csc(C(=O)c2c[nH]c3cc(F)ccc23)n1 [ARI-220] ... condition not met
N[C@H](c1csc(C(=O)c2c[nH]c3cc(F)ccc23)n1)C(F)(F)F [ARI-223] ... condition met
CC[C@H](O)c1nc(C(=O)c2c[nH]c3cc(F)ccc23)cs1 [ARI-213] ... condition met
NC(c1csc(C(=O)c2c[nH]c3ccccc23)n1)C(F)(F)F (stereo not drawn) [ARI-100] ... condition not met

Does hepatocyte CLint at 1 μM meet or surpass 10 µL/min/1e6 cells for CC[C@H](N)c1csc(C(=O)c2c[nH]c3ccc(F)cc23)n1 [ARI-218] ? condition met

Hi team, for O=C(c1nc([C@H](O)C(F)(F)F)cs1)c1c[nH]c2cc(F)ccc12 [ARI-212] , is the recorded hepatocyte CLint at 1 μM at or above 10 µL/min/1e6 cells? condition not met

Check the entry CC(C)(O)c1csc(C(=O)c2c[nH]c3ccccc23)n1 [ARI-215] : does hepatocyte CLint at 1 μM equal or exceed 10 µL/min/1e6 cells? condition met

Could you tell me if the measured hepatocyte CLint at 1 μM of N[C@H](c1csc(C(=O)c2c[nH]c3ccccc23)n1)C(F)(F)F [ARI-228] reaches 10 µL/min/1e6 cells or more? condition met

* * *

Experiment: In vivo pharmacokinetic studies in rats
Design: species or system SD rats
Conditions: Sprague-Dawley (SD), rat, plasma, po, 10 mg/kg, rats, PO 10 mg/kg repeat dose, Day 5, Mean of 3 animals
resultType: AUC(0-inf)
Numeric answer plus unit only.

Report AUC(0-inf) for CC(C)(N)c1csc(C(=O)c2c[nH]c3cc(F)ccc23)n1 please. 38.7 ng·h/mL

* * *

Assay: In vivo pharmacokinetic studies in mice
Design: species or system Balb/C mice
Details: mouse, plasma; Balb/C mice, single dose IP 40 mg/kg
resultType: MRT last (h)
Numbers only here, please. The scale is h.

Quick check: MRT last of CC[C@H](N)c1csc(C(=O)c2c[nH]c3cc(F)ccc23)n1 ? 11.2

* * *

Assay: In vivo pharmacokinetic studies in rats
Design: species or system SD rats
Details: SD, rat, plasma, po, 10 mg/kg, rats, repeat oral dosing 10 mg/kg QD; read-out: AUC on day 5
resultType: AUC (ng·h/mL)
Quick note: give the figure in ng·h/mL, leave out the unit.

Which measured AUC value corresponds to CC[C@H](N)c1csc(C(=O)c2c[nH]c3cc(F)ccc23)n1 [ARI-186] ? 29100

* * *

Assay: In vivo pharmacokinetic studies in rats
Parameters: species or system SD rats
Details: SD, rat, plasma, po, 10 mg/kg, rats, repeat 10 mg/kg PO QD, Day 5, Mean
resultType: AUC(0-inf) (ng·h/mL)
Kindly provide the numeric value in ng·h/mL only, without the unit symbol.

Give the measured AUC(0-inf) of N[C@@H](c1csc(C(=O)c2c[nH]c3cc(F)ccc23)n1)C(F)(F)F [ARI-224] . 8.24

* * *

Test: In vivo pharmacokinetic studies in rats
Parameters: species or system SD rats
Details: Sprague-Dawley (SD), rat, plasma, po, 10 mg/kg, rats, repeat 10 mg/kg PO QD, Day 1, Mean of 3 animals
resultType: AUC(0-inf) (ng·h/mL)
Note: unit ng·h/mL is implicit; provide only the numeric part.

N[C@@H](c1csc(C(=O)c2c[nH]c3cc(F)ccc23)n1)C(F)(F)F ... 2680

Now look at this entry.
Which AUC(0-inf) is listed for CC[C@H](N)c1csc(C(=O)c2c[nH]c3cc(F)ccc23)n1 ? 6480

* * *

Experiment: In vivo pharmacokinetic studies in mice
Set-up: species or system Balb/C mice
Conditions: mouse, plasma; Balb/C mice, single dose IV 5 mg/kg
resultType: Cmax (µg/mL)
Only the number, expressed in µg/mL, is required.

Cmax lookup needed for CC[C@H](N)c1csc(C(=O)c2c[nH]c3cc(F)ccc23)n1 , thanks. 2.13

* * *

This listing pairs compounds with measured AUC(0-inf).
Experiment: In vivo pharmacokinetic studies in rats
Parameters: species or system SD rats
Details: Sprague-Dawley (SD), rat, plasma, po, 10 mg/kg, rats, single 10 mg/kg PO dose, individual animal

CC[C@H](O)c1csc(C(=O)c2c[nH]c3cc(F)ccc23)n1 [ARI-164] ... 2110 ng·h/mL

Let us examine a further case.
Dear colleague, I am looking for the recorded AUC(0-inf) of the following compound: CC[C@@H](O)c1csc(C(=O)c2c[nH]c3cc(F)ccc23)n1 [ARI-165] 4680 ng·h/mL

* * *

Here, each record is paired with measured MRT inf at 1 day data.
Assay: In vivo pharmacokinetic studies in rats
Design: species or system SD rats
Conditions: Sprague-Dawley (SD), rat, plasma, po, 10 mg/kg, rats, repeat 10 mg/kg PO QD, Day 1, Mean of 3 animals
Just the number in h, nothing appended.

CC[C@H](N)c1csc(C(=O)c2c[nH]c3cc(F)ccc23)n1 ... 10.1

Lab note: next molecule to report on.
Form field: reported MRT inf at 1 day of N[C@@H](c1csc(C(=O)c2c[nH]c3cc(F)ccc23)n1)C(F)(F)F 2.79

* * *

Experiment: In vivo pharmacokinetic studies in mice
Set-up: species or system Balb/C mice
Conditions: mouse, plasma; Balb/C mice, single dose PO 10 mg/kg
resultType: MRT last (h)
Lab book: enter the figure in h, no units written.

For CC[C@H](N)c1csc(C(=O)c2c[nH]c3cc(F)ccc23)n1 , what is its reported MRT last? 6.76

* * *

Assay: In vivo pharmacokinetic studies in mice
Parameters: species or system Balb/C mice
Conditions: mouse, plasma; Balb/C mice, single dose PO 10 mg/kg
resultType: Cmax
Include the unit right after the number.

Please give the measured Cmax for this compound: CC[C@H](N)c1csc(C(=O)c2c[nH]c3cc(F)ccc23)n1 1380 ng/mL

* * *

Assay: In vivo pharmacokinetic studies in rats
Parameters: species or system SD rats
Conditions: Sprague-Dawley (SD), rat, plasma, po, 10 mg/kg, rats, single 10 mg/kg PO dose, individual animal; read-out: Tmax
resultType: Tmax
Param answer (str): number followed by unit.

CC[C@@H](O)c1csc(C(=O)c2c[nH]c3cc(F)ccc23)n1 [ARI-165] ... 2 h

We now examine a further compound.
Bench note: what Tmax did CC[C@H](O)c1csc(C(=O)c2c[nH]c3cc(F)ccc23)n1 [ARI-164] show? 2 h
